The measurements presented in this section are drawn from ChEMBL document CHEMBL1201862.

Recorded AC50 values (UniProtKB P11712) are given below.
Sequence (P11712 whole entry): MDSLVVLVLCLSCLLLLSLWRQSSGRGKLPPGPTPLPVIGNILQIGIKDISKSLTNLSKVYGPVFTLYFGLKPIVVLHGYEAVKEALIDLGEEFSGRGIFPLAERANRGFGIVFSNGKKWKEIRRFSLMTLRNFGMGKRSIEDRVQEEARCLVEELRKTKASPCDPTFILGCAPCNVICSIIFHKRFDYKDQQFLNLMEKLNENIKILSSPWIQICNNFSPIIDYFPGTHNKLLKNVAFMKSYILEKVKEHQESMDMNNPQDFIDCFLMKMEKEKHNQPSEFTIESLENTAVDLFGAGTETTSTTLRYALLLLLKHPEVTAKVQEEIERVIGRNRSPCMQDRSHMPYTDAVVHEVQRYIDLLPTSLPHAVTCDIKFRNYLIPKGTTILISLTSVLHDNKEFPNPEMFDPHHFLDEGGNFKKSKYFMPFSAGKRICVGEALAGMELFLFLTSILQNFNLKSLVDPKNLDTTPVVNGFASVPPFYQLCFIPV

Example entries begin here.
Lab entry: UniProtKB P11712 assay, compound `CCOC(=O)c1cc(CC)sc1NC(=O)c1cc(OCC)c(OCC)c(OCC)c1` , AC50 = 20 µM (inconclusive)

Lab entry: UniProtKB P11712 assay, compound `CC(=O)N1CCC(=O)N(C(C)C)c2ccccc21` , AC50 = 0.0282 µM (inconclusive)

Lab entry: UniProtKB P11712 assay, compound `CNc1oc(-c2ccc(Cl)cc2)nc1C#N` , AC50 = 8.91 µM (inconclusive)

---
Lab entry: UniProtKB P11712 assay, compound `CCOc1ccc(N2C(=O)CS/C2=N/NC(=O)COc2ccc3ccccc3c2)cc1` , AC50 = 31.6 µM (inconclusive)

Lab entry: UniProtKB P11712 assay, compound `C[n+]1c(/C=C/c2ccc(O)c3ncccc23)[se]c2ccccc21` , AC50 = 6.31 µM (inconclusive)
